Attribute: TGI
- Test system: MALME-3M melanoma
- protocol.details: NCI tumour cell line growth inhibition, 48 h

Reference set (5 entries):
1. CN1CC2CN(Cc3ccccc3)CCN2c2cccnc21 (stereo unspecified) | > 100 µM
2. COC(=O)/C=C1/OC(c2ccc(OC)cc2)=C(Cl)C1=O | 30.7 µM
3. C#CC1(O)CCCCCCCCC2(CCCCCCCC1)OCCO2 | 34.3 µM
4. O=C(Nc1ccc(Oc2cccc(F)c2)c(Cl)c1)c1cnccn1 | > 50 µM
5. CC(=O)Nc1cccc(N=NN(C)C)c1 | > 100 µM

Turning now to a further compound:
Problem: Name the reported TGI value associated with the compound CCN1C(=O)N(CC)C2C1NN=c1s/c(=C\c3ccccn3)c(=O)n12 (stereo unspecified)
Solution: > 100 µM

----------
- Test system: PC-3 prostate
- protocol.details: NCI tumour cell line growth inhibition, 48 h
recorded.endpoint: TGI (µM)
Quick note: give the figure in µM, leave out the unit.

Reference set (2 entries):
1) CCC[CH2][Sn]1([CH2]CCC)[O]C2C(CO)OC(n3ccc(N)nc3=O)C2[O]1 (stereo unspecified) | 3.26
2) Cc1cn2c(/C=C3/C(=O)Nc4ccc(O)cc43)c(C)nc2s1 | 37.2

Turning now to a further compound:
Problem: Name the reported TGI value associated with the compound Cn1cc(-c2csc(-c3cn(C)c4ccccc34)n2)c2ccccc21
Solution: 89.8

----------
Attribute: GI50
- Tested on: MDA-MB-435

Reference set (6 entries):
1. Nc1ccccc1C#C/C=C\C#Cc1cccc(O)c1 | 1.5 µM
2. O=[N+]([O-])c1ccc(N=Nc2ccc(O)c3ccccc23)cc1 | 5.31 µM
3. C#CCNCCN1C(=O)c2ccc3c4c(ccc(c24)C1=O)C(=O)N(CCNCC#C)C3=O | 1.52 µM
4. C[C@]12CC[C@@H]3c4ccc(O)cc4CC[C@H]3[C@@H]1Cc1cnc(N)nc12 | 16.2 µM
5. Cc1cnc(CNC(=O)c2c(=O)c3ccc(N4CCCN(C)CC4)nc3n3c2sc2ccccc23)cn1 | 5.4 µM
6. O1[As]2O[As]3O[As]1O[As](O2)O3 | 1.64 µM

Problem: Name the reported GI50 value associated with the compound Cc1nn(-c2ccc([N+](=O)[O-])cc2)c2ncnc(N/N=C/c3ccccc3O)c12
Solution: 0.654 µM

Problem: What do you get for Cc1ccc(-c2nc3nc(-c4ccccc4)nc(N4CCNCC4)c3o2)cc1 ?
Solution: 1.58 µM

Problem: What do you get for O=C1C(SCCO)=C(SCCO)C(=O)N1c1ccc(-c2ccccc2)cc1 ?
Solution: 4.98 µM

Problem: What do you get for COc1cc(OC)c2[nH]c3c(O)c(-c4c(C)cc5c([nH]c6c(OC)cc(OC)cc65)c4O)c(C)cc3c2c1 ?
Solution: 12 µM

----------
- Test system: NCI/ADR-RES ovarian
- protocol.details: NCI tumour cell line growth inhibition, 48 h
Attribute: TGI
Quick note: give the figure in µM, leave out the unit.

Reference set (7 entries):
1. Cc1ccc(Nc2nc3c(=O)n(C)c(=O)n(C)c3nc2Nc2ccc(C)cc2)cc1 | 35.1
2. O=[N+]([O-])c1ccc(N=Nc2ccc(O)c3ccccc23)cc1 | 55.8
3. COc1ccc(N(/C=C/C(=O)C(F)(F)F)CC(=O)c2ccc(F)cc2)cc1 | 87.4
4. C[C@@H]1CC[C@@]2(OC1)O[C@H]1C[C@H]3[C@@H]4CC[C@H]5C[C@@H](OC6OC(CO)C(OC7OC(CO)C(O)C(OC8OCC(O)C(O)C8O)C7OC7OC(CO)C(O)C(O)C7O)C(O)C6O)[C@H](O)C[C@]5(C)[C@H]4CC[C@]3(C)[C@H]1[C@@H]2C (some centres undefined) | 12.6
5. CCSc1nc(SCC)c2c(-c3ccc(OC)c(OC)c3)c(C#N)c(SCC)nc2n1 | 45
6. COc1cc(OC)c(C(=O)/C=C/c2cccc(C#N)c2)c(OC)c1 | 10.5
7. CC(C)NC(=O)OCc1c2c(n(C)c1COC(=O)NC(C)C)-c1ccccc1CC2 | 32.2

Problem: Name the reported TGI value associated with the molecule O=[N+]([O-])c1ccc(NNN=Nc2ccc(-c3nc4ccccc4s3)cc2)c([N+](=O)[O-])c1
Solution: 81.5

These entries and their values trace back to PubChem BioAssay (NCI).
